Cited source for all entries: the supplement of paper PMC12667976

B1: library; numbered along this chain (parent)
chain: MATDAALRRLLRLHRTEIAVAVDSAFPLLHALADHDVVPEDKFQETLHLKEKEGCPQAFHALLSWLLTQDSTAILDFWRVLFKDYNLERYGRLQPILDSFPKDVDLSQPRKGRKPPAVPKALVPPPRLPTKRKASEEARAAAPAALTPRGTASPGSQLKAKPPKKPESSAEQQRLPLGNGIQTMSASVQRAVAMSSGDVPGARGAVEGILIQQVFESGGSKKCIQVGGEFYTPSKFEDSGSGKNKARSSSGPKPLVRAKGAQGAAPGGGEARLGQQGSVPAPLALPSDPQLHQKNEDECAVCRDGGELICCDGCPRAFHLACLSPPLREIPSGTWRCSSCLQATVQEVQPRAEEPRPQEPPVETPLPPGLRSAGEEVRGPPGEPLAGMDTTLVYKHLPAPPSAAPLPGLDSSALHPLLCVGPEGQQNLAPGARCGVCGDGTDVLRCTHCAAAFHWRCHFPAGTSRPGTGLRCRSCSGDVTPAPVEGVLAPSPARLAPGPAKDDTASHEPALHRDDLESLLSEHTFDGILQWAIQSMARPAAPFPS

variants of: B1; test: AIRE transcriptional activation functional score (insulin promoter-GFP; nonsense median 0, synonymous median 1) (normalised score); higher = higher AIRE activity (more reporter activation); details: with insulin promoter-GFP reporter in HEK293
reported metric: AIRE transcriptional activation functional score

[[record]]
mutation_id = "L516V"
obs_value = 0.832

[[record]]
mutation_id = "E40G"
obs_value = -0.121

[[record]]
mutation_id = "P380L"
obs_value = 0.882

[[record]]
mutation_id = "R15D"
obs_value = 0.279

[[record]]
mutation_id = "L177A"
obs_value = 0.839

[[record]]
mutation_id = "D312N"
obs_value = 0.702

[[record]]
mutation_id = "S535T"
obs_value = 0.745

[[record]]
mutation_id = "C446A"
obs_value = 0.113

[[record]]
mutation_id = "G204L"
obs_value = 0.339

[[record]]
mutation_id = "E376W"
obs_value = 1.23

[[record]]
mutation_id = "R92P"
obs_value = -0.2

[[record]]
mutation_id = "A450V"
obs_value = 1.19

[[record]]
mutation_id = "T344V"
obs_value = 0.896

[[record]]
mutation_id = "G435T"
obs_value = 0.0827

[[record]]
mutation_id = "T441C"
obs_value = 1.25

[[record]]
mutation_id = "L106A"
obs_value = -0.169

[[record]]
mutation_id = "P490S"
obs_value = 1.11

[[record]]
mutation_id = "G267D"
obs_value = 0.595

[[record]]
mutation_id = "C322W"
obs_value = 0.487

[[record]]
mutation_id = "C223R"
obs_value = 0.797

[[record]]
mutation_id = "S241E"
obs_value = 1.29

[[record]]
mutation_id = "T334L"
obs_value = 1.12

[[record]]
mutation_id = "P280A"
obs_value = 0.981

[[record]]
mutation_id = "C449N"
obs_value = -0.014

[[record]]
mutation_id = "Y394F"
obs_value = 0.973

[[record]]
mutation_id = "P422Y"
obs_value = 1.42

[[record]]
mutation_id = "K102R"
obs_value = 2.19

[[record]]
mutation_id = "L28I"
obs_value = 0.53

[[record]]
mutation_id = "P125R"
obs_value = 0.79

[[record]]
mutation_id = "I309T"
obs_value = 0.922

[[record]]
mutation_id = "A202E"
obs_value = 0.791

[[record]]
mutation_id = "V206G"
obs_value = 0.631

[[record]]
mutation_id = "P539T"
obs_value = 0.931

[[record]]
mutation_id = "D515C"
obs_value = 0.503

[[record]]
mutation_id = "T463H"
obs_value = 0.813

[[record]]
mutation_id = "A532R"
obs_value = 0.215

[[record]]
mutation_id = "T390D"
obs_value = 0.833

[[record]]
mutation_id = "V226D"
obs_value = 0.724

[[record]]
mutation_id = "P422N"
obs_value = 1.18

[[record]]
mutation_id = "P289R"
obs_value = 1.19

[[record]]
mutation_id = "Q425F"
obs_value = 1.13

[[record]]
mutation_id = "D84E"
obs_value = 0.774

[[record]]
mutation_id = "E88R"
obs_value = 2.71

[[record]]
mutation_id = "G469F"
obs_value = 1.42

[[record]]
mutation_id = "F77P"
obs_value = -0.416

[[record]]
mutation_id = "N427V"
obs_value = 1.06

